Recorded values, source the Human Domainome abundance scans (Beltran et al. 2025).

B1: DNA topoisomerase 3-alpha, residues 812 to 851; numbered along this chain, Q13472 (parent)
chain: TCNCGQEAVLLTVRKEGPNRGRQFFKCNGGSCNFFLWADS

Variants of: B1
Test: abundance fitness (aPCA) (normalised: wild type 0, dead -1); higher = more abundant; growth selection in yeast, the domain comes from the species named
Conditions: Homo sapiens
For each entry below, report its abundance fitness value.
Give a plain numeric answer without units written out.

Which value of abundance fitness has been reported for TCNCGQEAVLLTVRKEGPNRGRHFFKCNGGSCNFFLWADS [Q23H] in the records? 0.03

Consider next the variant TCNCGQEAVLTTVRKEGPNRGRQFFKCNGGSCNFFLWADS [L11T] in the same way. 0.027

Consider next the variant TCNCGQEAVLLTVRKAGPNRGRQFFKCNGGSCNFFLWADS [E16A] in the same way. -0.185

Consider next the variant TCNCGQEWVLLTVRKEGPNRGRQFFKCNGGSCNFFLWADS [A8W] in the same way. -0.367

Consider next the variant TCNCGQEAVLLTVRREGPNRGRQFFKCNGGSCNFFLWADS [K15R] in the same way. 0.108

Consider next the variant TCNCGQEAVLLTVRKEGPNRWRQFFKCNGGSCNFFLWADS [G21W] in the same way. -0.89

Consider next the variant TCNCGQEAVGLTVRKEGPNRGRQFFKCNGGSCNFFLWADS [L10G] in the same way. -0.474

Consider next the variant TCNCGQEAVLLTVRKEGPNRGRQFFKENGGSCNFFLWADS [C27E] in the same way. -0.53

Consider next the variant TCNCGQEAVLLTVRKEGPNRGRQFFKCNGGSCNFFYWADS [L36Y] in the same way. -0.265

Consider next the variant TCNCGQEAVLLTVEKEGPNRGRQFFKCNGGSCNFFLWADS [R14E] in the same way. 0.001

Consider next the variant TCNCGQEAVSLTVRKEGPNRGRQFFKCNGGSCNFFLWADS [L10S] in the same way. -0.33

Consider next the variant TCNCGQEAVLLTVRKEGPNRGRQFFKLNGGSCNFFLWADS [C27L] in the same way. -0.984

Consider next the variant TCNRGQEAVLLTVRKEGPNRGRQFFKCNGGSCNFFLWADS [C4R] in the same way. -0.907

Consider next the variant TCNCGQEAVLLTVRKEGPNRGRQFFKCNGGSCNFFEWADS [L36E] in the same way. -0.013

Consider next the variant TCNCGQEAVLLTVRKEGPDRGRQFFKCNGGSCNFFLWADS [N19D] in the same way. 0.069

Consider next the variant TCNCGQEAVLLTVRKEGPNRGRQFFKCNGGLCNFFLWADS [S31L] in the same way. -0.176

Consider next the variant TCNCGQEAVLLTVRKEGPNRGRQFFKCNGGSCNFFGWADS [L36G] in the same way. -0.177

Consider next the variant TCNCGQEAVLLTVRKEGPNRGRQFFKCNGGSCNFFLWAQS [D39Q] in the same way. -0.63

Consider next the variant TCNCGQEAVLLPVRKEGPNRGRQFFKCNGGSCNFFLWADS [T12P] in the same way. -0.528

Consider next the variant TCNCGQEAVLLTVRKEGPNRGRQFFKCNGGSRNFFLWADS [C32R] in the same way. -0.934

Consider next the variant TCNCGQEAVLLTVRKEGPNRGRQFFKMNGGSCNFFLWADS [C27M] in the same way. -0.789

Consider next the variant TCNCGQEAVLLTVRKEGPNRGNQFFKCNGGSCNFFLWADS [R22N] in the same way. -0.459

Consider next the variant TSNCGQEAVLLTVRKEGPNRGRQFFKCNGGSCNFFLWADS [C2S] in the same way. -0.593
